# MEASUREMENT_DESCRIPTION: Protein binding in rabbit plasma
# Assay type: ADME, organism-based, Oryctolagus cuniculus
# PARTICULARS: read-out: PPB (converted)
Where a name gives a salt, the structure may show the parent alone.
QUANTITY_MEASURED: fraction unbound

- COMPOUND: "CN(C)Cc1nccn1-c1ccc(NC(=O)c2cc(C(F)(F)F)nn2-c2ccc3onc(N)c3c2)c(F)c1 [RAZAXABAN HYDROCHLORIDE]"
  fraction unbound: 0.07

a = Cc1nn(-c2ccc3onc(N)c3c2)c2c(=O)n(-c3ccc(-c4ccccc4CN4CC[C@@H](O)C4)cc3)c(C)nc12
b = Cc1nc2c(C(F)(F)F)nn(-c3ccc4onc(N)c4c3)c2c(=O)n1-c1ccc(-c2ccccc2CN(C)C)cc1
Task: Among a and b , which shows a numerically higher fraction unbound result? Please identify the chosen entry by its label.
Result: a
(a: 0.09, b: 0.03)

----------
# ASSAY_TARGET: Coagulation factor X (Homo sapiens, UniProt P00742)
# Sequence (P00742 41-179 limits assumed): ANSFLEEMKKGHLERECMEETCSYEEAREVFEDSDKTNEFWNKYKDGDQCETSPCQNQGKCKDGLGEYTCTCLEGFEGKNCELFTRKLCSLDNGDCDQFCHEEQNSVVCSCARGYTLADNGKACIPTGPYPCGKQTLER
# Sequence (P00742 235-488 limits assumed): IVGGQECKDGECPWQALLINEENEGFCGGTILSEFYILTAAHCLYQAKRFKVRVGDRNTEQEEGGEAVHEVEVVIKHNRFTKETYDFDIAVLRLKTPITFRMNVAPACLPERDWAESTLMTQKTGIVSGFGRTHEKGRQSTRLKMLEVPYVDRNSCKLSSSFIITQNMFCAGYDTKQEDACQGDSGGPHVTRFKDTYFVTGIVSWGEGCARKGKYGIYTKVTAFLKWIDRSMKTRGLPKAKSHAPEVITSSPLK
# MEASUREMENT_DESCRIPTION: Anticoagulant activity in human plasma measured as activated partial thromboplastin time
# Type: functional, cell-free
QUANTITY_MEASURED: 2aPTT (µM)

Examples with their reported 2aPTT follow.
- SUBSTANCE_SMILES: "Cc1nn(-c2ccc3onc(N)c3c2)c2c(=O)n(-c3ccc(-c4ccccc4CNC(C)C)cc3)cnc12"
  ASSAY_VALUE: 3
- SUBSTANCE_SMILES: "Cc1nn(-c2ccc3onc(N)c3c2)c2c(=O)n(-c3ccc(-c4ccccc4CN4CCCC4)cc3)cnc12"
  ASSAY_VALUE: 1.6
- SUBSTANCE_SMILES: "Cc1nn(-c2ccc3onc(N)c3c2)c2c(=O)n(-c3ccc(-c4ccccc4CN4CC[C@@H](O)C4)cc3)c(C)nc12"
  ASSAY_VALUE: 5.8

A = CCOC(=O)c1nn(-c2ccc3onc(N)c3c2)c2c(=O)n(-c3ccc(-c4ccccc4CN4CCCC4)cc3)cnc12
B = Nc1noc2ccc(-n3nc(C(F)(F)F)c4c3C(=O)N(c3ccc(-c5ccccc5CN5CC[C@@H](O)C5)cc3)CN4)cc12
C = Nc1noc2ccc(-n3nc(C(F)(F)F)c4[nH]c(=O)n(-c5ccc(-c6ccccc6CN6CC[C@@H](O)C6)cc5)c(=O)c43)cc12
Task: Exam item: list the entries in increasing order of 2aPTT. The reply should contain the labels ordered as requested.
Result: A, B, C

I = Cc1nn(-c2ccc3onc(N)c3c2)c2c(=O)n(-c3ccc(-c4ccccc4CN(C)C)cc3)cnc12
II = Cc1nc2c(C(F)(F)F)nn(-c3ccc4onc(N)c4c3)c2c(=O)n1-c1ccc(-c2ccccc2CN2CC[C@@H](O)C2)cc1
Task: Returns: the label, I or II , whose recorded 2aPTT is the lower number. Please identify the chosen entry by its label.
Result: I

A = Cc1nc2c(C(F)(F)F)nn(-c3ccc4onc(N)c4c3)c2c(=O)n1-c1ccc(-c2ccccc2CNCC2CC2)cc1
B = CN(C)Cc1nccn1-c1ccc(-n2c(=O)[nH]c3c(C(F)(F)F)nn(-c4ccc5onc(N)c5c4)c3c2=O)c(F)c1
C = CN(C)Cc1ccccc1-c1ccc(-n2cnc3c(C(F)(F)F)nn(-c4ccc5onc(N)c5c4)c3c2=O)cc1
D = Nc1noc2ccc(-n3nc(C(F)(F)F)c4[nH]c(=O)n(-c5ccc(-c6ccccc6CN6CCC(O)CC6)cc5)c(=O)c43)cc12
Task: Exam item: list the entries in increasing order of 2aPTT. The reply should contain the labels ordered as requested.
Result: C, A, B, D

1 = Nc1nc2c(C(F)(F)F)nn(-c3ccc4onc(N)c4c3)c2c(O)c1-c1ccc(-c2ccccc2CN2CCC(O)CC2)cc1
2 = CN(C)Cc1ccccc1-c1ccc(N2CNc3c(C(F)(F)F)nn(-c4ccc5onc(N)c5c4)c3C2=O)cc1
3 = Cc1nn(-c2ccc3onc(N)c3c2)c2c(=O)n(-c3ccc(-c4ccccc4CN4CC[C@H](O)C4)cc3)cnc12
4 = Cc1nn(-c2ccc3onc(N)c3c2)c2c(=O)n(-c3ccc(-c4ccccc4CNCC4CC4)cc3)cnc12
Task: Exam item: list the entries in increasing order of 2aPTT. The reply should contain the labels ordered as requested.
Result: 2, 3, 4, 1

A = Cc1nn(-c2ccc3onc(N)c3c2)c2c(=O)n(-c3ccc(-c4ccccc4CN(C)C(C)C)cc3)c(C)nc12
B = Cc1nc2c(C(F)(F)F)nn(-c3ccc4onc(N)c4c3)c2c(=O)n1-c1ccc(-c2ccccc2CN(C)C)cc1
Task: Returns: the label, A or B , whose recorded 2aPTT is the lower number. Please identify the chosen entry by its label.
Result: A

----------
# ASSAY_TARGET: Coagulation factor VII/tissue factor (Homo sapiens) (UniProt P08709+P13726)
# MEASUREMENT_DESCRIPTION: Anticoagulant activity in human plasma measured as prothrombin time
# Assay type: functional, cell-free
QUANTITY_MEASURED: 2PT (µM)

Examples with their reported 2PT follow.
- SUBSTANCE_SMILES: "CN(C)Cc1ccccc1-c1ccc(-n2cnc3c(C(F)(F)F)nn(-c4ccc5onc(N)c5c4)c3c2=O)cc1"
  ASSAY_VALUE: 2.6
- SUBSTANCE_SMILES: "Cc1nc2c(C(F)(F)F)nn(-c3ccc4onc(N)c4c3)c2c(=O)n1-c1ccc(-c2ccccc2CN(C)C)cc1"
  ASSAY_VALUE: 4.1

P = Nc1noc2ccc(-n3nc(C(F)(F)F)c4[nH]c(=O)n(-c5ccc(-c6ccccc6CN6CCC(O)CC6)cc5)c(=O)c43)cc12
Q = Cc1nn(-c2ccc3onc(N)c3c2)c2c(=O)n(-c3ccc(-c4ccccc4CN(C)C(C)C)cc3)c(C)nc12
R = Nc1noc2ccc(-n3nc(C(F)(F)F)c4[nH]c(=O)n(-c5ccc(-c6ccccc6CN6CC[C@@H](O)C6)cc5)c(=O)c43)cc12
S = Cc1nn(-c2ccc3onc(N)c3c2)c2c(=O)n(-c3ccc(-c4ccccc4CNC(C)C)cc3)cnc12
T = CN(C)Cc1nccn1-c1ccc(-n2c(=O)[nH]c3c(C(F)(F)F)nn(-c4ccc5onc(N)c5c4)c3c2=O)c(F)c1
Task: Order the records so the highest 2PT appears first and the lowest last. The reply should contain the labels ordered as requested.
Result: P, R, T, Q, S
